Kik/Kiv values by entry
- test system: PDE5 (Homo sapiens)
- measurement description: Kinetic assay (Lineweaver–Burk) on PDE5
- Assay type: biochemical
- condition description: PDE5; ratio according to Yang et al. [27]
// no unit string in output, number only

See these solved cases before continuing.
C=CCSSCC=C [DADS, diallyl disulfide] : 16.0
O=c1c(O)c(-c2ccc(O)c(O)c2)oc2cc(O)cc(O)c12 : 9.4
C=CCSSSCC=C [DATS, diallyl trisulfide] : 17.8

Lab note: measured Kik/Kiv of C[S@+]([O-])C[C@H](N)C(=O)O was 3.2

Record C/C=C/[S@+]([O-])C[C@H](N)C(=O)O . Reported Kik/Kiv: 13.0
